# testSummary: Drug repurposing screens with cells derived from glioblastoma tumor samples (AID 1345199); note: nearly all actives have a fitted effect of over 40% in size
# measurementParameters: GBM patient neurospheres viability, ATP luminescence, 48 h; at 21.3 µM (top of the series); tumour line A
Records with an inconclusive call do not appear.
In plain terms, low activity, negative = cell killing, meaning strictly below -30%, gives True, and everything else gives False.

compound: CN(C)[C@@H]1C(=O)C(C(N)=O)=C(O)[C@@]2(O)C(=O)C3=C(O)c4c(O)ccc(Cl)c4[C@@](C)(O)[C@H]3C[C@@H]12
assignedCategory: False
//
compound: NCC[C@H](O)C(=O)N[C@@H]1C[C@H](N)[C@@H](O[C@H]2O[C@H](CN)[C@@H](O)[C@H](O)[C@H]2N)[C@H](O[C@@H]2O[C@H](CO)[C@@H](O)[C@H]2O)[C@H]1O
assignedCategory: False
//
compound: C[N+]1([O-])[C@@H]2CC[C@H]1CC(OC(=O)C(CO)c1ccccc1)C2 (stereo not given in full)
assignedCategory: True
//
compound: CC1(C)S[C@@H]2[C@H](N)C(=O)N2[C@H]1C(=O)O
assignedCategory: False

###

# System: CP203
# testSummary: qHTS profiling for inhibitors of Plasmodium falciparum proliferation (AID 504749); note: nearly all actives have a fitted effect of over 60% in size
# measurementParameters: P. falciparum in erythrocytes, SYBR Green DNA, 72 h; series mostly up to 28.7 µM
Inconclusive results are not listed. The source made the active and inactive calls. The call rests on the fitted dose curve; in most records, active means well fitted inhibition curve with a large enough effect; inconclusive means small, poorly fitted or top-dose-only effect; inactive means flat fitted curve, though single readings scatter.
Outcomes: t = active, f = inactive

compound: CCC1(C)CC(=O)NC(=O)C1
assignedCategory: f
//
compound: S=C=S
assignedCategory: f
//
compound: COc1ccc(OC)c(C(O)C(C)N)c1 (centres undefined)
assignedCategory: f
//
compound: CC(Cc1ccccc1)NC=O (centres undefined)
assignedCategory: f
//
compound: Clc1ccccc1Cl
assignedCategory: f
//
compound: CCCC(C)(COC(N)=O)COC(=O)NC1CC1 (centres undefined)
assignedCategory: f
//
compound: O=C(NC(=O)c1c(F)cccc1F)Nc1ccc(Cl)c(Oc2ncc(C(F)(F)F)cc2Cl)c1
assignedCategory: f
//
compound: C[N+]1(C)C2CCC1CC(OC(=O)c1c[nH]c3ccccc13)C2 (centres undefined)
assignedCategory: f
//
compound: O=C1CCO1
assignedCategory: f
//
compound: CC(C)(O)C1C2OC(=O)C1C1(O)CC3OC34C(=O)OC2C14C (centres undefined)
assignedCategory: f
//
compound: Clc1ccc(Cl)cc1
assignedCategory: f
//
compound: C[C@H]1CC[C@@H]2[C@@H](C)[C@H]3[C@H](C[C@H]4[C@@H]5CC=C6CC(O[C@@H]7O[C@H](CO)[C@H](O)[C@H](O[C@@H]8O[C@H](CO)[C@@H](O)[C@H](O)[C@H]8O)[C@H]7O[C@H]7O[C@@H](C)[C@H](O)[C@@H](O)[C@H]7O)CC[C@]6(C)[C@H]5CC[C@]34C)N2C1 (some centres undefined)
assignedCategory: f
//
compound: Cc1sc2ccccc2c1CC1=NCCN1
assignedCategory: f
//
compound: C[C@H]1CCC[C@H](O)CCCCCc2cc(O)cc(O)c2C(=O)O1
assignedCategory: f
//
compound: O=C(CS(=O)C(c1ccccc1)c1ccccc1)NO (centres undefined)
assignedCategory: f
//
compound: ClC1C(Cl)C(Cl)C(Cl)C(Cl)C1Cl (centres undefined)
assignedCategory: f
//
compound: O=C1CN(O)C(c2ccccc2)=c2cc(Cl)ccc2=N1
assignedCategory: f
//
compound: C=CCN(C1=NCCN1)c1c(Cl)cccc1Cl
assignedCategory: f
//
compound: O=c1[nH]c(=O)n(Cl)c(=O)n1Cl
assignedCategory: f
//
compound: CNC(=O)Oc1ccccc1C(=O)Nc1ccccc1
assignedCategory: f
//
compound: O[C@H]1[C@H]2[C@H](O)CCCN2C[C@H]1O
assignedCategory: f
//
compound: O=S(=O)(O)c1cc(O)ccc1O
assignedCategory: f
//
compound: [N-]=[N+]=CC(=O)OCC(N)C(=O)O (centres undefined)
assignedCategory: f
//
compound: C[N+]1(C)CCCCC1COC(=O)C(O)(c1ccccc1)c1ccccc1 (centres undefined)
assignedCategory: f
//
compound: [O]=[Cd]
assignedCategory: f
//
compound: CC(C)Nc1ccc(Nc2ccccc2)cc1
assignedCategory: t
//
compound: O=C1C2CC=CCC2C(=O)N1SC(Cl)(Cl)Cl (centres undefined)
assignedCategory: f
//
compound: CCCCCCCCCC(=O)O[C@H]1CC[C@H]2[C@@H]3CCC4=CC(=O)CC[C@]4(C)[C@H]3CC[C@]12C
assignedCategory: f
//
compound: COC([CH2][Hg])CNC(=O)c1ccccc1OCC(=O)O (centres undefined)
assignedCategory: f
//
compound: O=C/C=C/c1ccccc1
assignedCategory: f
//
compound: O=c1c2ccccc2[se]n1-c1ccccc1
assignedCategory: f
//
compound: CCC(N)Cc1c[nH]c2ccccc12 (centres undefined)
assignedCategory: f
//
compound: O=[N+]([O-])c1ccc(F)c([N+](=O)[O-])c1
assignedCategory: f
//
compound: OC(c1ccccc1)(c1ccccc1)C1CN2CCC1CC2 (centres undefined)
assignedCategory: f
//
compound: S=C(S)N1CCNCC1
assignedCategory: f
//
compound: CC(N)Cc1ccc(O)cc1 (centres undefined)
assignedCategory: f
//
compound: O=C(O)C(Cl)(Cl)Cl
assignedCategory: f
//
compound: NCC(O)c1cccc(O)c1 (centres undefined)
assignedCategory: f
//
compound: O=C(NCNC(=O)NC1C(=O)NC(=O)N1CO)NC1C(=O)NC(=O)N1CO (centres undefined)
assignedCategory: f
//
compound: COC1=CC=C2[C@H]3Cc4ccc(OC)c5c4[C@@]2(CCN3C)[C@H]1O5
assignedCategory: f
//
compound: [O]=[Cr](=[O])([OH])[O][Cr](=[O])(=[O])[OH]
assignedCategory: f
//
compound: O=[N+]([O-])c1cc(I)c(O)c(I)c1
assignedCategory: f
//
compound: O=C(OCCN1CCCCC1)C(O)(c1ccccc1)c1ccccc1
assignedCategory: f
//
compound: CC(C)CCON=O
assignedCategory: f
